- experiment: NCI Yeast Anticancer Drug Screen. Data for the bub3 strain (AID 167)
- measurement-context: S. cerevisiae bub3 mutant strain, at 5.0 µM (retest, dose inferred, filed as 0.5), hits give high values
This is part of a sample that, as a whole, favours compounds with a hit. Of some 79,000 tested, about 15% had one in any assay.
Decide using growth inhibition: a value greater than or equal to 30% is satisfied, a smaller one is not satisfied.

### Prompt Given the entry Cc1cc2c(cc1C)[n+]([O-])c(-c1nc3ccccc3s1)c(N)[n+]2[O-] , answer whether its growth inhibition meets or surpasses 30%.
### Response satisfied

### Prompt # iterate: CC1=NOC(=O)/C1=C/c1ccc2c(c1)OCO2
### Response not satisfied

### Prompt # iterate: CS(=O)(=O)SCc1ccc([N+](=O)[O-])cc1
### Response satisfied

### Prompt # iterate: CN(C)[C@@H]1C(=O)C(C(N)=O)=C(O)[C@@]2(O)C(=O)C3=C(O)c4c(O)cccc4C[C@H]3C[C@@H]12
### Response satisfied

### Prompt # iterate: CCCCCCCCCCCC1N=C(N)NC(CCCO)=C1C(=O)OC (stereo unspecified)
### Response not satisfied

### Prompt # iterate: CC(=O)Nc1ccc2c(c1)Cc1cc(N=C3C=CC(=O)O3)ccc1-2
### Response satisfied

### Prompt # iterate: O=c1ccc2ccccc2c2ccccc12
### Response satisfied

### Prompt # iterate: COc1nc2c(c(=O)n1C)N=C(c1ccccc1)[C@H](C(CC(=O)c1ccccc1)c1ccccc1)C(c1ccccc1)N2 (stereo partly specified)
### Response not satisfied

### Prompt # iterate: c1ccc(CCN2CCc3ccccc3C2)cc1
### Response not satisfied

###

- experiment: NCI Yeast Anticancer Drug Screen. Data for the sgs1 strain (AID 173);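 also: 0% = growth of vehicle-only control cultures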
- measurement-context: S. cerevisiae sgs1 mutant, at 11.0 µM, hits give high values
Compounds without any hit were thinned out: in the full panel of roughly 79,000, 15% have a hit.
Reported growth inhibition by item:
State the answer as a number, implicitly in %.

> print(dat)
                                   molecule  experimental.value
1  COc1ccc(C(NCCNC(c2ccc(OC)c(OC)c2)c2cc3c(cc2O)OCO3)c2cc3c(cc2O)OCO3)cc1OC (stereo not given)                   4

### Prompt Which value of growth inhibition has been reported for N/C(=N/N=C/c1cc(Br)cc(Br)c1O)NO in the records?
### Response 59

### Prompt # iterate: CCCCc1nnc(NS(=O)(=O)c2ccc(C)cc2)s1
### Response -6

### Prompt # iterate: CCOc1ccc(NC(=O)C2=C(C)NC(C)=C(C(=O)Nc3ccc(OCC)cc3)C2c2cccc([N+](=O)[O-])c2)cc1
### Response 4

### Prompt # iterate: CC(C)OC(=O)c1ccc(CCc2cc(O)c(Br)cc2O)cc1
### Response 58

###

- experiment: NCI Yeast Anticancer Drug Screen. Data for the mgt1 strain (AID 153)
- measurement-context: S. cerevisiae mgt1 mutant growth inhibition; at 3.7 µM; hits give high values
Compounds without any hit were thinned out: in the full panel of roughly 79,000, 15% have a hit.
Reported growth inhibition by item:
State the answer as a number, implicitly in %.

> print(dat)
                                   compound  unit.spec  experimental.value
1  COc1cc([C@@H]2c3cc4c(cc3[C@@H](Nc3ccc(NC(=O)c5cc([N+](=O)[O-])cn5C)cc3)[C@H]3COC(=O)[C@H]23)OCO4)cc(OC)c1O          %                   5
2     CCC(C)NC1=NCC(C)S1 (stereo not given)          %                 -15
3       NC1=NNC2(C(N)=N1)c1ccccc1-c1ccccc12          %                   6
4  COc1cccc2c1C(=O)c1c(O)c3c(c(O)c1C2=O)CC(O)(C(O)CO)CC3OC1CC(N2CCOCC2)C(O)C(C)O1 (stereo not given)          %                  97

### Prompt Which value of growth inhibition has been reported for Cc1cc(=O)oc2c(C)c3occc(=O)c3cc12 in the records?
### Response 3

###

- experiment: NCI Yeast Anticancer Drug Screen. Data for the wt1 strain (AID 149);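 also: 0% = growth of vehicle-treated wt1 cultures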
- measurement-context: S. cerevisiae wt1 strain (SPY 50644) growth inhibition; at 33.0 µM; hits give high values
About 79,000 compounds went through this panel and 15% of them were active in at least one assay; those are over-represented in the sample as a whole.
Decide using growth inhibition: a value greater than or equal to 10% is fulfilled, a smaller one is not fulfilled.

> print(dat)
              compound  qualitative.label
1  CCCCCCCCCCCC1=NCCO1          fulfilled

### Prompt Given the entry O=C(Oc1ccc2c(c1)CN(Cc1ccccc1)CO2)c1ccccc1 , answer whether its growth inhibition meets or surpasses 10%.
### Response fulfilled

### Prompt # iterate: Clc1ccc2c(c1)N(CCCN1CCCC13CCCCC3)c1ccccc1S2
### Response not fulfilled

### Prompt # iterate: O=C1OC(C2=CC(=O)c3ccccc3C2=O)C(Cl)=C1Cl (configuration not stated)
### Response fulfilled

### Prompt # iterate: O=C(CC(=O)n1nc(-c2ccccc2)c(N=Nc2ccc(Cl)cc2)c1-c1ccccc1)Nc1cccc(Cl)c1
### Response not fulfilled

### Prompt # iterate: COC1=C(OC)C(=O)C(Sc2ccc3ccccc3c2)=CC1=O
### Response fulfilled

### Prompt # iterate: O=C(NO)Nc1cc(Cl)cc(Cl)c1
### Response fulfilled

### Prompt # iterate: O=C1CC(=O)c2ccccc21
### Response not fulfilled

### Prompt # iterate: CN(C)CCOC1(Cc2ccc(F)cc2)CCC(C(C)(C)C)CC1 (configuration not stated)
### Response not fulfilled

### Prompt # iterate: C=C1CC(CCCl)(c2ccccc2)OC1=O (configuration not stated)
### Response fulfilled

### Prompt # iterate: c1ccc2c(OCC3CO3)cccc2c1 (configuration not stated)
### Response not fulfilled

###

- experiment: NCI Yeast Anticancer Drug Screen. Data for the rad50EPP+ strain (AID 151);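 also: 0% = growth of vehicle-treated control cultures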
- measurement-context: S. cerevisiae rad50 mutant strain, at 33.0 µM, hits give high values
The panel holds about 79,000 compounds, 15% with a hit somewhere; the sample as a whole holds those more often.
Reported growth inhibition by item:
State the answer as a number, implicitly in %.

Field: example entries. Status: answers known.
> print(dat)
                                   compound          parameter  experimental.value
1             COC(=O)/C=C(/CC(=O)OC)C(=O)OC  growth inhibition                  -1
2    O=C(/C=C/c1cc(Cl)cc(Cl)c1O)c1cccc(O)c1  growth inhibition                  97
3                         S=c1sc2c(s1)SCCS2  growth inhibition                  14
4       Cc1cc(C)c(NC(=S)NC(=O)c2ccccc2)cc1C  growth inhibition                 -18
5    CCN(CC)CCOc1cc(C)c2cc(Cc3ccccc3)ccc2n1  growth inhibition                   7
6  OC(/C=C/c1ccccc1)(Cc1cc(-c2ccccc2)n[nH]1)c1ccccc1 (stereo unspecified)  growth inhibition                  13
7  CC(=O)OCC(C)Cc1cc2c(cc1Br)OCO2 (stereo unspecified)  growth inhibition                  18
8      CC(C)CN(CC(C)C)C(=O)c1ccc(Cl)c(Cl)c1  growth inhibition                   6

### Prompt Which value of growth inhibition has been reported for COc1cccc2c1C(=O)c1c(O)c3c(c(O)c1C2=O)CC(O)(C(O)CO)CC3OC1CC(N2CCOCC2)C(O)C(C)O1 (stereo unspecified) in the records?
### Response 97

### Prompt # iterate: Cc1ccc(Cl)cc1NC(=O)OCCN(C)C(=O)Nc1cc(Cl)ccc1C
### Response -6

### Prompt # iterate: COc1cc2ccnc(-c3c4ccccc4c(N)c4c(OC)c(OC)ccc34)c2cc1OC
### Response 31

###

- experiment: NCI Yeast Anticancer Drug Screen. Data for the rad14 strain (AID 159);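 also: 0% = growth of vehicle-treated control cultures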
- measurement-context: S. cerevisiae rad14 strain growth inhibition; at 100.0 µM
The panel holds about 79,000 compounds, 15% with a hit somewhere; the sample as a whole holds those more often. Calls of active or inactive are those of the source. No stated cut-off is given here; in the data, active means growth inhibition above about 70%; inactive means the rest.
Respond using exactly one of the listed classes: t for active, f for inactive

Recorded results for 2 compounds are shown here.
> print(dat)
                                   compound  qualitative.label
1  CCCOC(=O)C(F)C(Br)C(=O)OCCC (stereo not drawn)                  t
2      O=C(/C=C\c1cccc(C(F)(F)F)c1)c1ccccc1                  f

### Prompt How was C=C1C(=O)OC2CC1C(OC(C)=O)C/C(C)=C/CC/C(C)=C\CCC2(C)O (stereo not drawn) classified in this test?
### Response t
